system: Staphylococcus aureus; experiment: Antibacterial activity against Staphylococcus aureus NCIM 2010 after 12 hrs by serial dilution method; format: functional, organism-based; conditions: NCIM 2010, 12 h
Numbered stars: 1 amine (or outer) side, 2 acyl side, 3 side chain; on linkers, the order of the positions; unused ones are H or OH. Square brackets hold non-standard residues; d marks the D form. Peptide text beside a SMILES is read from it. Pro(cis-4-guanidino) = NC(N)=N[C@@H]1CN[C@H](C(=O)O)C1; X1 = NCCCN1C[C@@H](N[*:1])C[C@H]1C(=O)[*:2]; βAla = NCCC(=O)O
measured_endpoint: IC50

[
  {
    "molecule": "CC(=O)N[C@@H](Cc1ccccc1)C(=O)NCC(=O)N[C@H]1C[C@@H](C(=O)N[C@@H](CCCCN)C(=O)N[C@@H](CCCCN)C(=O)N[C@@H](CCCNC(=N)N)C(=O)N[C@H]2C[C@@H](C(=O)N[C@@H](CCC(N)=O)C(=O)N[C@@H](CCCNC(=N)N)C(=O)N[C@@H](CCCNC(=N)N)C(=O)N[C@H]3C[C@@H](C(=O)NCCC(N)=O)N(CCCN)C3)N(CCCN)C2)N(CCCN)C1 (Ac-FG[X1]KKR[X1]QRR[X1][βAla]-NH2)",
    "assay_target": "Staphylococcus aureus",
    "IC50": "0.0106 µM"
  }
]

**Q:** What does the data say about its IC50? Entry: CC(=O)N[C@@H](Cc1ccccc1)C(=O)NCC(=O)N1C[C@@H](NC(=N)N)C[C@H]1C(=O)N[C@@H](CCCCN)C(=O)N[C@@H](CCCCN)C(=O)N[C@@H](CCCNC(=N)N)C(=O)N1C[C@@H](NC(=N)N)C[C@H]1C(=O)N[C@@H](CCC(N)=O)C(=O)N[C@@H](CCCNC(=N)N)C(=O)N[C@@H](CCCNC(=N)N)C(=O)N1C[C@@H](NC(=N)N)C[C@H]1C(=O)NCCC(N)=O (Ac-FG[Pro(cis-4-guanidino)]KKR[Pro(cis-4-guanidino)]QRR[Pro(cis-4-guanidino)][βAla]-NH2)
**A:** 0.227 µM

###

tested on: Staphylococcus aureus; experiment: Antibacterial activity against Staphylococcus aureus NCIM 2010 after 12 hrs by serial dilution method; format: functional, organism-based; conditions: NCIM 2010, 12 h
Square brackets hold non-standard residues; d marks the D form. Peptide text beside a SMILES is read from it. Pro(cis-4-guanidino) = NC(N)=N[C@@H]1CN[C@H](C(=O)O)C1; βAla = NCCC(=O)O
measured_endpoint: IC50 (nM)
// return numeric value only (unit: nM, not printed)

**Q:** Param readout= IC50; system= Staphylococcus aureus; entry= CC(=O)N[C@@H](Cc1ccccc1)C(=O)NCC(=O)N1C[C@@H](NC(=N)N)C[C@H]1C(=O)N[C@@H](CCCCN)C(=O)N[C@@H](CCCCN)C(=O)N[C@@H](CCCNC(=N)N)C(=O)N1C[C@@H](NC(=N)N)C[C@H]1C(=O)N[C@@H](CCC(N)=O)C(=O)N1C[C@@H](NC(=N)N)C[C@H]1C(=O)N[C@@H](CCCNC(=N)N)C(=O)N1C[C@@H](NC(=N)N)C[C@H]1C(=O)NCCC(N)=O (Ac-FG[Pro(cis-4-guanidino)]KKR[Pro(cis-4-guanidino)]Q[Pro(cis-4-guanidino)]R[Pro(cis-4-guanidino)][βAla]-NH2) ; returns value.
**A:** 92

**Q:** // repeat for NC[C@H]1O[C@H](O[C@H]2[C@H](O)[C@@H](O[C@H]3O[C@H](CO)[C@@H](O)[C@H](N)[C@H]3O)[C@H](N)C[C@@H]2N)[C@H](O)[C@@H](O)[C@@H]1O [KANAMYCIN] and report
**A:** 300

**Q:** // repeat for CC(=O)N[C@@H](Cc1ccccc1)C(=O)NCC(=O)N[C@H]1C[C@@H](C(=O)N[C@@H](CCCCN)C(=O)N[C@@H](CCCCN)C(=O)N[C@@H](CCCNC(=N)N)C(=O)N[C@H]2C[C@@H](C(=O)N[C@@H](CCC(N)=O)C(=O)N[C@H]3C[C@@H](C(=O)N[C@@H](CCCNC(=N)N)C(=O)N[C@H]4C[C@@H](C(=O)NCCC(N)=O)N(CCCNC(=N)N)C4)N(CCCNC(=N)N)C3)N(CCCNC(=N)N)C2)N(CCCNC(=N)N)C1 and report
**A:** 6.4

**Q:** // repeat for CC1(C)S[C@@H]2[C@H](NC(=O)[C@H](N)c3ccccc3)C(=O)N2[C@H]1C(=O)O [AMPICILLIN] and report
**A:** 100

###

experiment: Drug degradation assessed as pepsin (unknown origin)-mediated compound hydrolysis by measuring remaining compound levels at 1 hr by RP-HPLC method; format: ADME; details: human, read-out: Stability
measured_endpoint: remaining at 1 h (%)
// return numeric value only (unit: %, not printed)

[
  {
    "line_notation": "CC(=O)N[C@@H](Cc1ccccc1)C(=O)NCC(=O)N[C@@H](CCCNC(=N)N)C(=O)N[C@@H](CCCCN)C(=O)N[C@@H](CCCCN)C(=O)N[C@@H](CCCNC(=N)N)C(=O)N[C@@H](CCCNC(=N)N)C(=O)N[C@@H](CCC(N)=O)C(=O)N[C@@H](CCCNC(=N)N)C(=O)N[C@@H](CCCNC(=N)N)C(=O)N[C@@H](CCCNC(=N)N)C(N)=O",
    "measured_endpoint": "remaining at 1 h",
    "uom": "%",
    "value_measured": 94.2
  }
]

Pending molecule:
**Q:** What does the data say about its remaining at 1 h? Entry: CC(=O)N[C@@H](Cc1ccccc1)C(=O)NCC(=O)N[C@H]1C[C@@H](C(=O)N[C@@H](CCCCN)C(=O)N[C@@H](CCCCN)C(=O)N[C@@H](CCCNC(=N)N)C(=O)N[C@H]2C[C@@H](C(=O)N[C@@H](CCC(N)=O)C(=O)N[C@H]3C[C@@H](C(=O)N[C@@H](CCCNC(=N)N)C(=O)N[C@H]4C[C@@H](C(=O)NCCC(N)=O)N(CCCNC(=N)N)C4)N(CCCNC(=N)N)C3)N(CCCNC(=N)N)C2)N(CCCNC(=N)N)C1
**A:** 100

###

test system: Staphylococcus aureus; experiment: Antibacterial activity against Staphylococcus aureus NCIM 2010 after 12 hrs by serial dilution method; type: functional, organism-based; conditions: NCIM 2010, 12 h
Numbered stars: 1 amine (or outer) side, 2 acyl side, 3 side chain; on linkers, the order of the positions; unused ones are H or OH. Square brackets hold non-standard residues; d marks the D form. Peptide text beside a SMILES is read from it. Pro(N-(CH2)3Gua,cis-4-NH-) = N=C(N)NCCCN1C[C@@H](N[*:1])C[C@H]1C(=O)[*:2]; Pro(cis-4-guanidino) = NC(N)=N[C@@H]1CN[C@H](C(=O)O)C1; X1 = NCCCN1C[C@@H](N[*:1])C[C@H]1C(=O)[*:2]; Ethylenediamine = C(CN[*:2])N[*:1]; βAla = NCCC(=O)O
measured_endpoint: IC50 (nM)
// return numeric value only (unit: nM, not printed)

Examples with their reported IC50 follow.
[
  {
    "molecule": "CC(=O)N[C@@H](Cc1ccccc1)C(=O)NCC(=O)N[C@@H](CCCNC(=N)N)C(=O)N[C@@H](CCCCN)C(=O)N[C@@H](CCCCN)C(=O)N[C@H]1C[C@@H](C(=O)N[C@@H](CCCNC(=N)N)C(=O)N[C@@H](CCC(N)=O)C(=O)N[C@@H](CCCNC(=N)N)C(=O)N[C@@H](CCCNC(=N)N)C(=O)N[C@@H](CCCNC(=N)N)C(=O)NCCC(N)=O)N(CCCNC(=N)N)C1 (Ac-FGRKK[Pro(N-(CH2)3Gua,cis-4-NH-)]RQRRR[βAla]-NH2)",
    "IC50 / nM": 23
  },
  {
    "molecule": "CC(=O)N[C@@H](Cc1ccccc1)C(=O)NCC(=O)N[C@H]1C[C@@H](C(=O)N[C@@H](CCCCN)C(=O)N[C@@H](CCCCN)C(=O)N[C@@H](CCCNC(=N)N)C(=O)N[C@H]2C[C@@H](C(=O)N[C@@H](CCC(N)=O)C(=O)N[C@H]3C[C@@H](C(=O)N[C@@H](CCCNC(=N)N)C(=O)N[C@H]4C[C@@H](C(=O)NCCN)N(CCCN)C4)N(CCCN)C3)N(CCCN)C2)N(CCCN)C1 (Ac-FG[X1]KKR[X1]Q[X1]R[X1]-Ethylenediamine)",
    "IC50 / nM": 13.4
  },
  {
    "molecule": "CC(=O)N[C@@H](Cc1ccccc1)C(=O)NCC(=O)N[C@@H](CCCNC(=N)N)C(=O)N[C@@H](CCCCN)C(=O)N[C@@H](CCCCN)C(=O)N[C@@H](CCCNC(=N)N)C(=O)N[C@@H](CCCNC(=N)N)C(=O)N[C@@H](CCC(N)=O)C(=O)N[C@@H](CCCNC(=N)N)C(=O)N[C@@H](CCCNC(=N)N)C(=O)N[C@H]1C[C@@H](C(=O)NCCC(N)=O)N(CCCNC(=N)N)C1 (Ac-FGRKKRRQRR[Pro(N-(CH2)3Gua,cis-4-NH-)][βAla]-NH2)",
    "IC50 / nM": 7
  },
  {
    "molecule": "CC(=O)N[C@@H](Cc1ccccc1)C(=O)NCC(=O)N[C@H]1C[C@@H](C(=O)N[C@@H](CCCCN)C(=O)N[C@@H](CCCCN)C(=O)N[C@@H](CCCNC(=N)N)C(=O)N[C@H]2C[C@@H](C(=O)N[C@@H](CCC(N)=O)C(=O)N[C@@H](CCCNC(=N)N)C(=O)N[C@@H](CCCNC(=N)N)C(=O)N[C@H]3C[C@@H](C(=O)NCCC(N)=O)N(CCCNC(=N)N)C3)N(CCCNC(=N)N)C2)N(CCCNC(=N)N)C1 (Ac-FG[Pro(N-(CH2)3Gua,cis-4-NH-)]KKR[Pro(N-(CH2)3Gua,cis-4-NH-)]QRR[Pro(N-(CH2)3Gua,cis-4-NH-)][βAla]-NH2)",
    "IC50 / nM": 10.4
  }
]

Pending molecule:
**Q:** What does the data say about its IC50? Entry: CC(=O)N[C@@H](Cc1ccccc1)C(=O)NCC(=O)N[C@@H](CCCNC(=N)N)C(=O)N[C@@H](CCCCN)C(=O)N[C@@H](CCCCN)C(=O)N1C[C@@H](NC(=N)N)C[C@H]1C(=O)N[C@@H](CCCNC(=N)N)C(=O)N[C@@H](CCC(N)=O)C(=O)N[C@@H](CCCNC(=N)N)C(=O)N[C@@H](CCCNC(=N)N)C(=O)N[C@@H](CCCNC(=N)N)C(=O)NCCC(N)=O (Ac-FGRKK[Pro(cis-4-guanidino)]RQRRR[βAla]-NH2)
**A:** 104
